Kindly state TGI for each of the entries shown.
Test system: CAKI-1 renal
assay_remarks: NCI tumour cell line growth inhibition, 48 h
Numbers only, in µM.

compound	unit_of_measurement	number
CN1CCN(Cc2ccc(NC(=O)c3cncc(C#Cc4cnc(N)cc4C#N)c3)cc2C(F)(F)F)CC1	µM	16.7

Query: Reported TGI for CN(C)CCNC(=O)c1ccc(-c2nc3ccc4[nH]ncc4c3c3c2C2CCC3C2)cc1 (centres undefined) : what is it?
Response: 5.25

###

Tested on: SNB-75 CNS
assay_remarks: NCI tumour cell line growth inhibition, 48 h
measure: TGI

Below are worked cases with known answers.
molecule	TGI
C[N+](C)(C)C=Nc1cccc2c1CCCC2	> 100 µM
O=C1Nc2cc([N+](=O)[O-])c(Br)cc2C1=O	52 µM
NS(=O)(=O)c1ccc(N=Nc2c(O)[nH]c3ccc(C(=O)NCc4ccncc4)cc23)cc1	> 25 µM
CCN1CCN(c2cc(C)nc(N(CCCNc3ccnc4cc(Cl)ccc34)Cc3ccc4c(c3)OCO4)n2)CC1	3.57 µM
CCN(CC)CCCNC(=O)c1cc2cc(NC(=O)c3cc4cc([N+](=O)[O-])ccc4[nH]3)ccc2[nH]1	> 100 µM

List the reported TGI of each molecule below.
1. NC(Cc1c[nH]c2cc([N+](=O)[O-])ccc12)C(=O)O (stereo not drawn)
2. O=C1CC(C(CC(=O)c2ccccc2)c2ccccc2)C(=O)c2ccccc2N1 (stereo not drawn)
3. CN1N=C(c2ccncc2)OC1c1cccc(C(F)(F)F)c1 (stereo not drawn)
4. CCCCCCCCOC(=O)c1c(C)[nH]c(/C=C2\N=C(c3ccc[nH]3)C=C2OC)c1C
5. Nc1cccc(S(=O)(=O)Nc2nnc(S(N)(=O)=O)s2)c1
6. O=c1nc(-c2ccccc2)cc(CC(O)c2ccc(Cl)c(Cl)c2)[nH]1 (stereo not drawn)
7. CC1(C)C(CCO)CC1n1ccc(=O)[nH]c1=O (stereo not drawn)
8. CC(C)c1nc(N(C)S(C)(=O)=O)nc(-c2ccc(F)cc2)c1/C=C/[C@@H](O)C[C@@H](O)CC(=O)O

Response:
1: > 100 µM; 2: > 100 µM; 3: 87.3 µM; 4: 0.432 µM; 5: > 100 µM; 6: > 100 µM; 7: > 100 µM; 8: > 77.5 µM

For every listed record, write down its TGI.
1. NC(=O)[C@@H](CC1CC1)[C@@H](CCC(F)(F)F)C(=O)N[C@H]1N=C(c2ccccc2)c2cccc(F)c2NC1=O
2. C#CCNC(=S)N/N=C(\C)c1ccccn1
3. CC1CN(S(=O)(=O)c2oc(-c3ccc(Cl)cc3)nc2C#N)CC(C)O1 (stereo not drawn)
4. C[Si](C)(c1ccc(C(=O)O)cc1)c1ccc(C(=O)O)cc1
5. CC(C)=CCOc1cc(NC(=S)c2ccsc2C)ccc1Cl
6. COCC1OC(S(=O)(=O)c2ccccc2)C(O)C(OC)C1OC (stereo not drawn)
7. O=NN(CCF)C(=O)NC1CC2CCC1C2 (stereo not drawn)
8. Cc1ccc2nc(-c3ccc(OCC(=O)N=Nc4c(O)[nH]c5ccccc45)cc3)[nH]c2c1

Response:
1: > 100 µM; 2: > 23.7 µM; 3: 22.7 µM; 4: > 100 µM; 5: 66.4 µM; 6: > 100 µM; 7: > 100 µM; 8: 38.5 µM

Hi! Can you tell me TGI for each of these molecules?
1. Cc1nnc2n(c1=O)CCN2C
2. O=C1C(=O)N(c2ccc(Cl)cc2)C(=O)C(=O)C1c1nc2ccccc2s1

Response:
["> 100 µM", "> 100 µM"]
